Target Or Test System: human farnesyl transferase (Homo sapiens, UniProt P49354+P49356)
Construct: human farnesyl transferase purified from THP1 cell cultures; endogenous in cells; host or cells: THP1 cell cultures (enzyme purified from the cells)
Test: inhibition of farnesyl transferase ((3H) farnesyl transfer from (3H) FPP to p21 H-ras)
Assay type: biochemical
Recorded Conditions: human farnesyl transferase purified from THP1 cell cultures; p21 H-ras substrate; 20 minutes at 37° C.; 9 concentrations; read-out: in vitro inhibitory activity IC50
pIC50: −log10 of the molar value.
Measured Property: pIC50

Worked examples, 3 compounds total:
{"Compound": "COc1ccccc1CC(=O)N1C[C@@H]2[C@]3(c4ccccc4)CC[C@@H](c4ccccc43)[C@]2(C(=O)NN)C1 (relative stereo)", "Obs Value": 5.30}
{"Compound": "COc1ccc2c(c1)[C@]1(c3ccccc3)CC[C@H]2[C@@]2(C(=O)O)CN(C(=O)Cc3ccccc3OC)C[C@@H]12 (relative stereo)", "Obs Value": 5.55}
{"Compound": "C/C=C(/C(=O)N1C[C@H]2[C@@]3(c4ccccc4)CC[C@H](c4ccccc43)[C@@]2(C(=O)OC)C1)c1ccccc1OC (relative stereo)", "Obs Value": 5.17}

[I] COc1ccccc1CC(=O)N1C[C@H]2[C@@]3(c4ccccc4)CC[C@H](c4ccccc43)[C@@]2(NC(=O)C(CO)NC(=O)OC(C)(C)C)C1 (some centres unmarked)
[II] COC(=O)[C@]12CN(C(=O)Cc3ccccc3OC)C[C@H]1[C@@]1(c3ccccc3)CC[C@@H]2c2cc(C=O)ccc21 (relative stereo)
[III] C=C(C(=O)N1C[C@H]2[C@@]3(c4ccccc4)CC[C@H](c4ccccc43)[C@@]2(C(=O)NCc2cccc(C(F)(F)F)c2)C1)c1ccccc1OC
Order field: pIC50 | Direction: descending (largest first) State the ranking by listing the labels in the requested order.
III, II, I

----------
Target Or Test System: human farnesyl transferase (Homo sapiens, UniProt P49354+P49356)
Construct: human farnesyl transferase purified from THP1 cell cultures; endogenous in cells; host or cells: THP1 cell cultures (enzyme purified from the cells)
Test: inhibition of farnesyl transferase ((3H) farnesyl transfer from (3H) FPP to p21 H-ras)
Type: biochemical
Recorded Conditions: human farnesyl transferase purified from THP1 cell cultures; p21 H-ras substrate; 20 minutes at 37° C.; 9 concentrations; read-out: in vitro inhibitory activity IC50
Measured Property: IC50 (µM)

{"Molecule": "COc1ccccc1CC(=O)N1C[C@@H]2[C@]3(c4ccccc4)CC[C@@H](c4ccccc43)[C@]2(C(=O)N(C)C)C1 (relative stereo)", "IC50 / µM": 3.9}

[a] COc1ccccc1CC(=O)N1C[C@H]2[C@@]3(c4ccccc4)CC[C@H](c4ccccc43)[C@@]2(NC=O)C1 (relative stereo)
[b] COc1ccccc1CC(=O)N1C[C@H]2[C@@]3(c4ccccc4)CC[C@H](c4ccccc43)[C@@]2(CC(C(=O)O)C(=O)O)C1 (relative stereo)
// pick larger IC50 from pair: a vs b Respond using the label that marks the chosen record.
a

----------
Target Or Test System: human farnesyl transferase (Homo sapiens, UniProt P49354+P49356)
Construct: human farnesyl transferase purified from THP1 cell cultures; endogenous in cells; host or cells: THP1 cell cultures (enzyme purified from the cells)
Test: inhibition of farnesyl transferase ((3H) farnesyl transfer from (3H) FPP to p21 H-ras)
Type: biochemical
Description: Farnesyl transferase activity is determined by the amount of (^3 H) farnesyl transferred from (^3 H) farnesylpyrophosphate [(^3 H) FPP] to the p21 H-ras protein. […] Reaction is initiated by adding approximately 5 ng of human farnesyl transferase purified from THP1 cell cultures. […] The membranes are dried in a microwave oven, then impregnated with scintillation medium by melting of Meltilex® (Pharmacia) under hot air, and lastly counted in cpm in a b-Plate counter® (LKB). […]
Measured Property: IC50 (µM)
Please reply with the bare figure in µM and do not write the unit itself.

{"Compound": "COc1ccccc1C(=O)C(=O)N1C[C@@H]2[C@]3(c4ccccc4)CC[C@@H](c4ccccc43)[C@]2(C(=O)O)C1 (racemic)", "Target Or Test System": "human farnesyl transferase (Homo sapiens, UniProt P49354+P49356)", "IC50 / µM": 8.45}
{"Compound": "C=C(C(=O)N1C[C@@H]2[C@]3(c4ccccc4)CC[C@@H](c4ccccc43)[C@]2(C(=O)O)C1)c1ccccc1OC (relative stereo)", "Target Or Test System": "human farnesyl transferase (Homo sapiens, UniProt P49354+P49356)", "IC50 / µM": 0.1}
{"Compound": "O=C(Cc1ccccc1Cl)N1C[C@@H]2[C@]3(c4ccccc4)CC[C@@H](c4ccccc43)[C@]2(C(=O)O)C1 (relative stereo)", "Target Or Test System": "human farnesyl transferase (Homo sapiens, UniProt P49354+P49356)", "IC50 / µM": 4.7}
{"Compound": "CSc1ccccc1CC(=O)N1CC2C3(c4ccccc4)CCC(c4ccccc43)C2(C(=O)O)C1 (single isomer, unassigned)", "Target Or Test System": "human farnesyl transferase (Homo sapiens, UniProt P49354+P49356)", "IC50 / µM": 0.62}
{"Compound": "O=C(Cc1ccccc1Br)N1C[C@H]2[C@@]3(c4ccccc4)CC[C@H](c4ccccc43)[C@@]2(C(=O)O)C1 (relative stereo)", "Target Or Test System": "human farnesyl transferase (Homo sapiens, UniProt P49354+P49356)", "IC50 / µM": 3.05}

Please give the measured IC50 for this compound: CCOP(=O)(C[C@]12CN(C(=O)Cc3ccccc3OC)C[C@H]1[C@@]1(c3ccccc3)CC[C@@H]2c2ccccc21)OCC (relative stereo)
10

Fill blank: measured IC50 of the compound CCOc1ccccc1CC(=O)N1C[C@H]2[C@@]3(c4ccccc4)CC[C@H](c4ccccc43)[C@@]2(C(=O)O)C1 (relative stereo) [Example 74] is ____.
0.19

# query: IC50 of entry O=C(Cc1ccccc1F)N1C[C@@H]2[C@]3(c4ccccc4)CC[C@@H](c4ccccc43)[C@]2(C(=O)O)C1 (relative stereo)
7

Would you mind telling me what IC50 value was observed for COc1ccccc1NC(=O)N1C[C@@H]2[C@]3(c4ccccc4)CC[C@@H](c4ccccc43)[C@]2(C(=O)O)C1 (relative stereo) ?
9.2

What does the record list as IC50 for COc1ccccc1CC(=O)N1C[C@H]2[C@@]3(c4ccccc4)CC[C@H](c4ccccc43)[C@@]2(C(=O)O)C1 (relative stereo) [Example 2] ?
0.31

Value lookup for IC50; key = COc1ccccc1CCC(=O)N1C[C@@H]2[C@]3(c4ccccc4)CC[C@@H](c4ccccc43)[C@]2(C(=O)O)C1 (relative stereo)
5

Any idea what its IC50 is? The compound is COc1ccccc1CC(=O)N1C[C@H]2[C@@]3(c4ccccc4)CC[C@H](c4ccccc43)[C@@]2(C(=O)O)C1 [Example 47]
0.14
